Assignment: determine reported TGI for the given compounds.
# Tested on: COLO 205 colon
# assayMethodText: NCI tumour cell line growth inhibition, 48 h

Q: For the compound `COc1cccc(N=Cc2c3ccccc3c(=O)n3c2oc2ccccc23)c1` , what TGI is on record?
Ans: > 100 µM

Q: And what about the compound `O=C(CSc1nnc(Cc2ccccc2)o1)Nc1cccc([N+](=O)[O-])c1` ?
Ans: > 100 µM

Q: And what about the compound COC(=O)C(=O)C(C(=O)C(=O)Nc1ccc(C)cc1C)c1nc2ccccc2[nH]c1=O (stereo not drawn) ?
Ans: > 100 µM

====

# System: OVCAR-5 ovarian
# assayMethodText: NCI tumour cell line growth inhibition, 48 h
readoutKind: TGI (µM)
I only need the number, in µM, no unit after it.

Q: For the molecule `Cn1cc(-c2csc(-c3cccc(F)c3)n2)c2cccnc21` , what TGI is on record?
Ans: 31.5

Q: And what about the molecule `CN1CCC(OC(=O)Oc2ccccc2)(c2ccccc2)CC1` ?
Ans: 84.2
